pest or weed control at 121.5 g/ha reference
System: Puccinia triticina; synonym: Puccinia recondita f. sp. tritici (PUCCRT)
Experiment: Wheat brown rust (PUCCRT) whole-plant fungicidal test
Format: in vivo
Conditions: topical, 72 h, low volume (track spray) application, 121.5 g/H, 3 Day Curative, read-out: Low Volume activity at 121.5 g/H PUCCRT 3DC (% disease control rating)
Measured quantity: pest or weed control at 121.5 g/ha

                                    compound  value_measured
 0  CCOCC(=O)OCOc1c(OC)ccnc1C(=O)N[C@H]1CCC[C@H](Cc2ccc(Cl)cc2)[C@@H](Cc2ccccc2)[C@H](C)OC1=O [Compound 20]           > 70%
 1  COc1ccnc(C(=O)N[C@H]2CCC[C@H](Cc3ccc(C(F)(F)F)cc3)[C@@H](CC(C)C)[C@H](C)OC2=O)c1OCOC(C)=O [Compound 23]           < 70%
 2  CCC[C@H]1CCC[C@H](NC(=O)c2nccc(OC)c2OCOC(C)=O)C(=O)O[C@@H](C)[C@@H]1Cc1ccc(F)cc1 [Compound 48]           > 70%
 3  CCOCC(=O)OCOc1c(OC)ccnc1C(=O)N[C@H]1CCC[C@H](Cc2ccccc2)[C@@H](Cc2ccc(OC(F)(F)F)cc2)[C@H](C)OC1=O [Compound 69]           < 70%
 4  COc1ccnc(C(=O)N[C@H]2CCC[C@H](CCC(C)C)[C@@H](CCc3ccccc3)[C@H](C)OC2=O)c1OC(C)=O [Compound 36]           < 70%
 5  COc1ccnc(C(=O)N[C@H]2CCC[C@H](Cc3ccc(C(F)(F)F)cc3)[C@@H](Cc3ccc(OC(F)(F)F)cc3)[C@H](C)OC2=O)c1OCOC(C)=O [Compound 65]           < 70%
 6  COc1ccnc(C(=O)N[C@H]2CCC[C@H](CCCc3ccccc3)[C@@H](CCc3ccccc3)[C@H](C)OC2=O)c1OC(C)=O [Compound 33]           < 70%
 7  CCOCC(=O)OCOc1c(OC)ccnc1C(=O)N[C@H]1CCC[C@H](Cc2ccc(Cl)cc2)[C@@H](C2CCCC2)[C@H](C)OC1=O [Compound 31]           < 70%
 8  COc1ccnc(C(=O)N[C@H]2CCC[C@H](Cc3ccc(Cl)cc3)[C@@H](C3CCCC3)[C@H](C)OC2=O)c1OCOC(=O)C(C)C [Compound 30]           < 70%
 9  COc1ccnc(C(=O)N[C@H]2CCC[C@H](Cc3ccccc3)[C@@H](Cc3ccc(F)cc3)[C@H](C)OC2=O)c1O [Compound 95]           < 70%
10  COc1ccnc(C(=O)N[C@H]2CCC[C@H](Cc3ccccc3)[C@@H](CC(C)C)[C@H](C)OC2=O)c1OCOC(C)=O [Compound 14]           < 70%
11  COc1ccnc(C(=O)N[C@H]2CCC[C@H](Cc3ccc(C(F)(F)F)cc3)[C@@H](Cc3ccc(F)cc3)[C@H](C)OC2=O)c1OCOC(C)=O [Compound 39]           < 70%

----------
Listed here are compounds together with their documented pest or weed control at 121.5 g/ha.
Test system: Puccinia triticina; synonym: Puccinia recondita f. sp. tritici (PUCCRT)
Experiment: Wheat brown rust (PUCCRT) whole-plant fungicidal test
Assay type: in vivo
Settings: topical, 72 h, low volume (track spray) application, 121.5 g/H, 3 Day Curative, read-out: Low Volume activity at 121.5 g/H PUCCRT 3DC (% disease control rating)
Measured quantity: pest or weed control at 121.5 g/ha

In [3]: df
Out[3]:
                                    compound                              assay_system  value_measured
 0  COc1ccnc(C(=O)N[C@H]2CCC[C@H](CCC(C)C)[C@@H](C3CCCC3)[C@H](C)OC2=O)c1OC(C)=O [Compound 43]  Puccinia triticina; synonym: Puccinia recondita f. sp. tritici (PUCCRT)           < 70%
 1  COc1ccnc(C(=O)N[C@H]2CCC[C@H](Cc3ccccc3)[C@@H](c3ccccc3)[C@H](C)OC2=O)c1OCOC(C)=O [Compound 52]  Puccinia triticina; synonym: Puccinia recondita f. sp. tritici (PUCCRT)           < 70%
 2  COc1ccnc(C(=O)N[C@H]2CCC[C@H](Cc3ccc(Cl)cc3)[C@@H](Cc3ccccc3)[C@H](C)OC2=O)c1OC(C)=O [Compound 21]  Puccinia triticina; synonym: Puccinia recondita f. sp. tritici (PUCCRT)           < 70%
 3  CCOCC(=O)OCOc1c(OC)ccnc1C(=O)N[C@H]1CCC[C@H](Cc2ccccc2)[C@@H](Cc2ccccc2)[C@H](C)OC1=O [Compound 8]  Puccinia triticina; synonym: Puccinia recondita f. sp. tritici (PUCCRT)           < 70%
 4  COc1ccnc(C(=O)N[C@H]2CCC[C@H](CCC(C)C)[C@@H](Cc3ccccc3)[C@H](C)OC2=O)c1OC(C)=O [Compound 4]  Puccinia triticina; synonym: Puccinia recondita f. sp. tritici (PUCCRT)           < 70%
 5  COc1ccnc(C(=O)N[C@H]2CCC[C@H](Cc3ccc(C(F)(F)F)cc3)[C@@H](Cc3ccc(F)cc3)[C@H](C)OC2=O)c1OC(C)=O [Compound 40]  Puccinia triticina; synonym: Puccinia recondita f. sp. tritici (PUCCRT)           < 70%
 6  COc1ccnc(C(=O)N[C@H]2CCC[C@H](CCC(C)C)[C@@H](C3CCCC3)[C@H](C)OC2=O)c1OCOC(C)=O [Compound 42]  Puccinia triticina; synonym: Puccinia recondita f. sp. tritici (PUCCRT)           < 70%
 7  COc1ccnc(C(=O)N[C@H]2CCC[C@H](Cc3ccc(Cl)cc3)[C@@H](C3CCCC3)[C@H](C)OC2=O)c1OC(C)=O [Compound 28]  Puccinia triticina; synonym: Puccinia recondita f. sp. tritici (PUCCRT)           < 70%
 8  COc1ccnc(C(=O)N[C@H]2CCC[C@H](Cc3ccccc3)[C@@H](C3CCCC3)[C@H](C)OC2=O)c1OCOC(C)=O [Compound 10]  Puccinia triticina; synonym: Puccinia recondita f. sp. tritici (PUCCRT)           > 70%
 9  CCC[C@H]1CCC[C@H](NC(=O)c2nccc(OC)c2OC(C)=O)C(=O)O[C@@H](C)[C@@H]1Cc1ccc(F)cc1 [Compound 46]  Puccinia triticina; synonym: Puccinia recondita f. sp. tritici (PUCCRT)           > 70%
10  COc1ccnc(C(=O)N[C@H]2CCC[C@H](Cc3ccccc3)[C@@H](CCc3ccccc3)[C@H](C)OC2=O)c1OCOC(=O)C(C)C [Compound 17]  Puccinia triticina; synonym: Puccinia recondita f. sp. tritici (PUCCRT)           < 70%
11  COc1ccnc(C(=O)N[C@H]2CCC[C@H](Cc3ccccc3)[C@@H](Cc3ccc(OC(F)(F)F)cc3)[C@H](C)OC2=O)c1OCOC(C)=O [Compound 68]  Puccinia triticina; synonym: Puccinia recondita f. sp. tritici (PUCCRT)           < 70%
12  COc1ccnc(C(=O)N[C@H]2CCC[C@H](Cc3ccccc3)[C@@H](CCc3ccccc3)[C@H](C)OC2=O)c1OC(C)=O [Compound 18]  Puccinia triticina; synonym: Puccinia recondita f. sp. tritici (PUCCRT)           < 70%
